# PROTOCOL TEXT: clinical
# EXPERIMENTAL CONDITIONS: human, in vivo
RECORDED METRIC: Tmax (min)
Give a bare numeral; the unit min is implied.

Tmax lookup needed for C=CCN1CC[C@]23c4c5ccc(O)c4O[C@H]2C(=O)CC[C@@]3(O)[C@H]1C5 , thanks. 45

----------
# PROTOCOL TEXT: clinical
# EXPERIMENTAL CONDITIONS: human, in vivo
RECORDED METRIC: Cmax (ng/mL)
Number only, in ng/mL; omit the unit.

Bench note: what Cmax did C=CCN1CC[C@]23c4c5ccc(O)c4O[C@H]2C(=O)CC[C@@]3(O)[C@H]1C5 [naloxone] show? 0.0266
